- assayInfo: Plasma concentration in athymic nude mouse xenografted with Rat1-myr-p110alpha tumor at 50 mg/kg, po measured after 16 hrs
- Format: ADME, organism-based
readout: concentration at 16 h (nM)
Respond numerically; units are nM and should not be typed.

Record CC(C)(C)c1ncc2c(n1)-c1sc(NC(=O)N3CC[C@@H]4C[C@@]43C(N)=O)nc1CC2 . Reported concentration at 16 h: 1000

====

- assayInfo: Oral bioavailability in Sprague-Dawley rat at 3 mg/kg
- Assay type: ADME, organism-based
- reportedConditions: in vivo
# bioavailability per record follows
Respond numerically; units are % and should not be typed.

Consider the reported bioavailability for these molecules:
structureString | readout | reading
CN(C)C[C@@]1(C(N)=O)CCCN1C(=O)Nc1nc2c(s1)-c1nc(C(C)(C)C)ncc1CC2 | bioavailability | 77
CC(C)(C)c1nc2c(s1)CCc1nc(NC(=O)N3CCC[C@H]3C(N)=O)sc1-2 | bioavailability | 39
CN(C)C[C@@H]1CCN(C(=O)Nc2nc3c(s2)-c2nc(C(C)(C)C)sc2CC3)[C@@H]1C(N)=O | bioavailability | 56
CC(C)(C)c1ncc2c(n1)-c1sc(NC(=O)N3CC[C@@H]4C[C@@]43C(N)=O)nc1CC2 | bioavailability | 83
Cc1nc(NC(=O)N2CCC[C@H]2C(N)=O)sc1-c1csc(C(C)(C)C)n1 | bioavailability | 2
Cc1nc(NC(=O)N2CCC[C@H]2C(N)=O)sc1-c1ccnc(C(C)(C)C)n1 | bioavailability | 18

Please find the next molecule below.
Record C[C@@H]1CCN(C(=O)Nc2nc3c(s2)-c2nc(C(C)(C)C)ncc2CC3)[C@@H]1C(N)=O . Reported bioavailability: 36

====

- assayInfo: Solubility of the compound at pH 6.8 by high throughput equilibrium method
- Assay type: physicochemical
- reportedConditions: buffer
Assign Met to entries whose solubility thermodynamic meets or exceeds 300 µM; assign Not met to the rest.

Example cases with answers are listed next.
structureString | classAssignment
CN(C)C[C@@]1(C(N)=O)CCCN1C(=O)Nc1nc2c(s1)-c1nc(C(C)(C)C)ncc1CC2 | Met
CC(C)(C)c1ncc2c(n1)-c1sc(NC(=O)N3CCC[C@H]3C(N)=O)nc1CC2 | Not met

### Prompt Does the reported solubility thermodynamic for CN(C)[C@@H]1C[C@@H](C(N)=O)N(C(=O)Nc2nc3c(s2)-c2nc(C(C)(C)C)ncc2CC3)C1 fall at or above the 300 µM mark?
### Response Met

### Prompt Does the reported solubility thermodynamic for CN(C)C[C@@H]1CCN(C(=O)Nc2nc3c(s2)-c2nc(C(C)(C)C)ncc2CC3)[C@@H]1C(N)=O fall at or above the 300 µM mark?
### Response Not met

### Prompt Does the reported solubility thermodynamic for CC(C)(C)c1ncc2c(n1)-c1sc(NC(=O)N3CCC[C@@]3(C)C(N)=O)nc1CC2 fall at or above the 300 µM mark?
### Response Not met

### Prompt Does the reported solubility thermodynamic for CC(C)(C)c1nc2c(s1)CCc1nc(NC(=O)N3CC[C@@H]4C[C@@]43C(N)=O)sc1-2 fall at or above the 300 µM mark?
### Response Met

### Prompt Does the reported solubility thermodynamic for CC(C)(C)c1nc2c(s1)CCc1nc(NC(=O)N3CCC[C@H]3C(N)=O)sc1-2 fall at or above the 300 µM mark?
### Response Not met
